All figures here come from patent US20110268800A1.

system under test: UniProtKB P00734
experimental protocol: thrombin inhibition test, amidolytic assay with Chromozym TH
Format: biochemical
test settings: thrombin, substrate Chromozym TH, pH 8.0, room temperature, 15 min preincubation; test concentration not printed
Reported Inhibition (%) values are given for each entry in this list.
Your answer should be a plain number; it is taken to be in %.

// below: answered compounds
CCCCCCCC(=O)O    0.7
CCCCCCCC/C=C\CCCCCCCC(=O)O [Oleic acid, 9-cis-Octadecenoic acid]    65.8
CCCCCCCC/C=C\CCCCCCCCCCCC(=O)O [Eruca acid, 13-cis-Docosaenoic acid]    7.8
CCCCC/C=C\C/C=C\CCCCCCCC(=O)O [Linoleic acid, 9-cis,12-cis-Octadecadienoic acid]    71.7
CCCCC/C=C\C/C=C\C/C=C\C/C=C\CCCC(=O)O    75.2

Q. Please look at this compound and report its Inhibition (%): CCCCCCCC/C=C\CCCCCCCCCC(=O)O [Eicosenoic acid, 11-cis-Eicosenoic acid]
A. 60.7

Q. Item CCCCCC[C@@H](O)C/C=C/CCCCCCCC(=O)O (stereo in doubt) [Ricinoleic acid, 12-Hydroxy-9-cis-octadecenoic acid] : provide Inhibition (%)
A. 43.9

Q. Please report the measured Inhibition (%) for CC/C=C\C/C=C\C/C=C\C/C=C\C/C=C\C/C=C\CCC(=O)O
A. −2.5

====

Entries and their Inhibition (%)
system under test: thrombin (Homo sapiens)
experimental protocol: thrombin inhibition test, amidolytic assay with Chromozym TH
Assay type: biochemical
test settings: thrombin, substrate Chromozym TH, pH 8.0, room temperature, 15 min preincubation; test concentration not printed
Form field: result (number plus unit)

CCCCCCCCCCCCCCCC(=O)O    1.4%

Q. Answer with the recorded Inhibition (%) for the compound listed here: CCCCCCCC/C=C/CCCCCCCC(=O)O [Elaidinic acid, 9-trans-Octadecenoic acid]
A. 7.4%

Q. Retrieve Inhibition (%) measured for CC/C=C\C/C=C\C/C=C\C/C=C\CCCCC(=O)O and print it.
A. 2.4%

====

system under test: thrombin (Homo sapiens)
experimental protocol: thrombin inhibition test, amidolytic assay with Chromozym TH
Format: biochemical
test settings: thrombin, substrate Chromozym TH, pH 8.0, room temperature, 15 min preincubation; test concentration not printed
Each entry below carries its recorded Inhibition (%).

Some molecules with recorded Inhibition (%):
CC/C=C\C/C=C\C/C=C\CCCCCCCC(=O)O [Linolenic acid]    75.5%
CC/C=C\C/C=C\C/C=C\C/C=C\C/C=C\CCCC(=O)O [Eicosapentaenoic acid]    −1.0%
C=CCCCCCCCC(=O)O [9-Decenoic acid]    −3.7%
CC/C=C\C/C=C\C/C=C\CCCCCCCCCC(=O)O [Eicosatrienoic acid]    76.0%

# ---- query molecule ----
Q. Report Inhibition (%) on thrombin (Homo sapiens) for this entry: CCCCCC/C=C\CCCCCCCCCC(=O)O [Vaccenic acid, 11-cis-Octadecenoic acid]
A. 79.9%
